assay: Clearance in Sprague dawley rat at 1 mg/kg, iv measured upto 24 hrs; format: ADME, organism-based; settings: in vivo
Measure: clearance (mL/min/kg)

Which value of clearance has been reported for C[C@H]1C[C@@H](C(N)=O)N(Cc2ccc(OCc3cccc(F)c3)cc2)C1 in the records?
79.1

Record: NC(=O)[C@@H]1CCCN1Cc1ccc(OCc2cccc(F)c2)cc1
47.1

Record: C[C@H](NCc1ccc(OCc2cccc(F)c2)cc1)C(N)=O [SAFINAMIDE]
65.5

* * *

experiment: Plasma protein binding in monkey assessed as unbound fraction at 1 uM measured after 5 hrs by LC-MS/MS analysis; format: ADME, cell-free, Macaca mulatta; settings: rhesus monkey
Measure: fraction unbound at 5 h, 1 µM
A bare number is all that is needed in reply.

Which value of fraction unbound at 5 h, 1 µM has been reported for NC(=O)[C@@H]1C[C@H](F)CN1Cc1ccc(OCc2cccc(F)c2)cc1 in the records?
0.0407
